# study_target: human NAMPT enzyme (His-hNAMPT) (Homo sapiens (Human), UniProt P43490)
# Sequence (P43490 whole entry): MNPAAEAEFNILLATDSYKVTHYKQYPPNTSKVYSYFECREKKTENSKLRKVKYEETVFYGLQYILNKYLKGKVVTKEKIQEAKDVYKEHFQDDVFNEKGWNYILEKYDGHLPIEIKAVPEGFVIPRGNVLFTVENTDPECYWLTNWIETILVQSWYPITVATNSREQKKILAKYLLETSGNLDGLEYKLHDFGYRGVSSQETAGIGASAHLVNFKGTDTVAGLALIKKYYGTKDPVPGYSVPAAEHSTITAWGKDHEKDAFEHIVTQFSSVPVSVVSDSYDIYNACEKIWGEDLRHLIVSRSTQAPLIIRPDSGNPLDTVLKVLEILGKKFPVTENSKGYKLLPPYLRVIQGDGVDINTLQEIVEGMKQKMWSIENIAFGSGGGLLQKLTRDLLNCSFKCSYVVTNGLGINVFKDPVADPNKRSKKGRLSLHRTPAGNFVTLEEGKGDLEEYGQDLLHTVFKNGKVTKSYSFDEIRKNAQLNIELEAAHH
# assay_protocol: NAMPT enzymatic inhibition assay (fluorescence, NADH product)
# Assay type: biochemical
# study_conditions: [HDB]; read-out: NAMPT IC50 (μM) [HDB]
Each entry below lists one item and its recorded IC50 value.
property: IC50

CC(C)(C)OC(=O)N1C[C@@H]2[C@@H](CCNC(=O)N3CC(c4cccnc4)C3)[C@@H]2C1: < 0.01 µM
CN1CCN(c2ncc(F)c(N3C[C@@H]4[C@@H](CCNC(=O)/C=C/c5cccnc5)[C@@H]4C3)n2)CC1: < 0.01 µM
O=C(/C=C/c1cccnc1)NCC[C@H]1[C@H]2CN(Cc3ccccc3)C[C@@H]12: 0.01 to 0.49 µM
O=C(/C=C/c1cccnc1)NCC[C@@H]1[C@H]2CN(Cc3ccc(F)cc3)C[C@@H]12: 0.01 to 0.49 µM
CNC(=O)COc1ncc(F)c(N2C[C@@H]3[C@@H](CCNC(=O)/C=C/c4cccnc4)[C@@H]3C2)n1: 0.01 to 0.49 µM
O=C(/C=C/c1cccnc1)NCC[C@@H]1[C@H]2CN(c3ccc4ccncc4c3)C[C@@H]12: < 0.01 µM
O=C(NCC[C@@H]1[C@H]2CN(c3nc(Cl)ncc3F)C[C@@H]12)c1cnc2nccn2c1: 0.01 to 0.49 µM
CC(C)(C)OC(=O)N1C[C@@H]2[C@H](CCNC(=O)/C=C/c3cccnc3)[C@@H]2C1: 0.01 to 0.49 µM
COc1ncc(F)c(N2C[C@@H]3[C@@H](CCNC(=O)/C=C/c4cncc(F)c4)[C@@H]3C2)n1: 0.01 to 0.49 µM
COC(=O)C(c1ccccc1)N1C[C@@H]2[C@@H](CCNC(=O)/C=C/c3cccnc3)[C@@H]2C1 (stereo partly drawn): < 0.01 µM
O=C(/C=C/c1cccnc1)NCC[C@@H]1[C@H]2CN(c3nc(OC4CCCC4)ncc3F)C[C@@H]12: < 0.01 µM
CN(C)CCOc1ncc(F)c(N2C[C@@H]3[C@@H](CCNC(=O)/C=C/c4cccnc4)[C@@H]3C2)n1: < 0.01 µM
O=C(NCC[C@@H]1[C@H]2CN(c3ccc(F)cc3)C[C@@H]12)c1cc2ccncc2o1: 0.01 to 0.49 µM
O=C(/C=C/c1cccnc1)NCC[C@@H]1[C@H]2CN(c3ccc(Cl)cc3)C[C@@H]12: 0.01 to 0.49 µM
CC(c1cccnc1)N1C[C@@H]2[C@@H](CCNC(=O)/C=C/c3cccnc3)[C@@H]2C1 (stereo partly drawn): < 0.01 µM
O=C(/C=C/c1cccnc1)NCC[C@@H]1[C@H]2CN(c3ccncc3)C[C@@H]12: 0.01 to 0.49 µM
O=C(/C=C/c1cccnc1)NCC[C@@H]1[C@H]2CN(c3ncc4cc(F)ccc4n3)C[C@@H]12: 0.01 to 0.49 µM
CC(C)Oc1ncc(F)c(N2C[C@@H]3[C@@H](CCNC(=O)/C=C/c4cccnc4)[C@@H]3C2)n1: 0.01 to 0.49 µM
O=C(NCC[C@@H]1[C@H]2CN(c3nc(Cl)ncc3F)C[C@@H]12)c1cc2ccncc2s1: 0.01 to 0.49 µM
O=C(/C=C/c1cccnc1)NCC[C@@H]1[C@H]2CN(Cc3ccc(C(F)(F)F)cc3)C[C@@H]12: 0.01 to 0.49 µM
O=C(/C=C/c1cccnc1)NCC[C@@H]1[C@H]2CN(c3ccnc(OC4CCOCC4)c3)C[C@@H]12: 0.01 to 0.49 µM
CP(C)(=O)c1cccc(N2C[C@@H]3[C@@H](CCNC(=O)/C=C/c4cccnc4)[C@@H]3C2)c1: 0.01 to 0.49 µM
O=C(/C=C/c1cccnc1)NCC[C@@H]1[C@H]2CN(Cc3cc(Cl)cc(Cl)c3)C[C@@H]12: 0.01 to 0.49 µM
O=C(/C=C/c1cccnc1)NCC[C@@H]1[C@H]2CN(c3ccc(F)c(Cl)c3)C[C@@H]12: 0.01 to 0.49 µM
Cc1nc2nccc(N3C[C@@H]4[C@@H](CCNC(=O)/C=C/c5cccnc5)[C@@H]4C3)c2o1: 0.01 to 0.49 µM
CNC(=O)C(c1ccccc1)N1C[C@@H]2[C@@H](CCNC(=O)/C=C/c3cccnc3)[C@@H]2C1 (stereo partly drawn): < 0.01 µM
NC(=O)c1ccnc(N2C[C@@H]3[C@@H](CCNC(=O)/C=C/c4cccnc4)[C@@H]3C2)n1: < 0.01 µM
CCN(CC)C(=O)COc1ncc(F)c(N2C[C@@H]3[C@@H](CCNC(=O)/C=C/c4cccnc4)[C@@H]3C2)n1: 0.01 to 0.49 µM
NC(=O)c1cnc(N2C[C@@H]3[C@@H](CCNC(=O)/C=C/c4cccnc4)[C@@H]3C2)nc1: < 0.01 µM
CN(C)c1ncc(F)c(N2C[C@@H]3[C@@H](CCNC(=O)/C=C/c4cccnc4)[C@@H]3C2)n1: < 0.01 µM
